# Test system: preferentially upregulated genes in LV, SP, LN
# protocol_details: Z-score-based differential gene expression analysis (adjuvant group- or adjuvant-associated genes, 40 module mapping, TargetMine annotation)
# Type: in vivo, C57BL/6 mice
# stated_conditions: ID, LV, sample x3
# Excerpt: Each sample's FC value was converted into a z-score on a gene basis by using the entire data set for each organ. The Z-score of the triplicates of interest were summed for each adjuvant. For example, the three sample z-score in the LV sample following cdiGMP administration was summed on a gene-by-gene basis, after which the summed scores of >3 genes were selected as relatively preferentially expressed genes in the LV after cdiGMP administration. The following threshold was applied for selections. […]
Recorded Uba7 1426970_a_at (Group G1, Modules 20), one value per entry.
Note: the reply should be a number with no unit written.

- compound: "Cc1ccc2c(=O)c3cccc(CC(=O)O)c3oc2c1C"
  Uba7 1426970_a_at (Group G1, Modules 20): 1.21

Item: Nc1nc2c(ncn2[C@@H]2O[C@@H]3COP(=O)(O)O[C@H]4[C@@H](O)[C@H](n5cnc6c(=O)[nH]c(N)nc65)O[C@@H]4COP(=O)(O)O[C@H]3[C@H]2O)c(=O)[nH]1 [cdiGMP, Cyclic diguanylate monophosphate] | Uba7 1426970_a_at (Group G1, Modules 20): 1.41

Item: Nc1nc2c(ncn2[C@@H]2O[C@@H]3COP(=O)(O)O[C@H]4[C@@H](O)[C@H](n5cnc6c(N)ncnc65)O[C@@H]4COP(=O)(O)O[C@@H]2[C@@H]3O)c(=O)[nH]1 [cGAMP, Cyclic [G(2′,5′)pA(3′,5′)p]] | Uba7 1426970_a_at (Group G1, Modules 20): 1.91

Item: CCOCc1nc2c(N)nc3ccccc3c2n1CC(C)(C)O | Uba7 1426970_a_at (Group G1, Modules 20): 2.27

* * *

Recorded GO annotation: response to wounding (Term: wounding), one value per entry.
# Test system: adjuvant-associated biological themes in LV, SP, LN
# stated_conditions: LV, ID
Note: the reply should be a number with no unit written.

Example cases with answers are listed next.
- compound: "CC(O)COC[C@H]1O[C@@H]2O[C@H]3[C@H](O)[C@@H](O)[C@@H](O[C@H]4[C@H](O)[C@@H](O)[C@@H](O[C@H]5[C@H](O)[C@@H](O)[C@@H](O[C@H]6[C@H](O)[C@@H](O)[C@@H](O[C@H]7[C@H](O)[C@@H](O)[C@@H](O[C@H]8[C@H](O)[C@@H](O)[C@@H](O[C@H]1[C@H](O)[C@H]2O)O[C@@H]8COCC(C)O)O[C@@H]7COCC(C)O)O[C@@H]6COCC(C)O)O[C@@H]5COCC(C)O)O[C@@H]4COCC(C)O)O[C@@H]3COCC(C)O (stereo partly drawn) [bCD, Hydroxypropyl-beta-cyclodextrin]"
  result_number: 5.85
- compound: "Nc1nc2c(ncn2[C@@H]2O[C@@H]3COP(=O)(O)O[C@H]4[C@@H](O)[C@H](n5cnc6c(=O)[nH]c(N)nc65)O[C@@H]4COP(=O)(O)O[C@H]3[C@H]2O)c(=O)[nH]1 [cdiGMP, Cyclic diguanylate monophosphate]"
  result_number: 11.4
- compound: "Cc1ccc2c(=O)c3cccc(CC(=O)O)c3oc2c1C"
  result_number: 0

Now examine the next entry.
Item: Nc1nc2c(ncn2[C@@H]2O[C@@H]3COP(=O)(O)O[C@H]4[C@@H](O)[C@H](n5cnc6c(N)ncnc65)O[C@@H]4COP(=O)(O)O[C@@H]2[C@@H]3O)c(=O)[nH]1 [cGAMP, Cyclic [G(2′,5′)pA(3′,5′)p]] | GO annotation: response to wounding (Term: wounding): 0

* * *

Recorded IFN beta: positive regulation of interferon-beta production, one value per entry.
# Test system: adjuvant-associated biological themes in LV, SP, LN
# stated_conditions: LV, ID
Note: the reply should be a number with no unit written.

Example cases with answers are listed next.
- compound: "CCOCc1nc2c(N)nc3ccccc3c2n1CC(C)(C)O"
  result_number: 6.66
- compound: "Nc1nc2c(ncn2[C@@H]2O[C@@H]3COP(=O)(O)O[C@H]4[C@@H](O)[C@H](n5cnc6c(N)ncnc65)O[C@@H]4COP(=O)(O)O[C@@H]2[C@@H]3O)c(=O)[nH]1 [cGAMP, Cyclic [G(2′,5′)pA(3′,5′)p]]"
  result_number: 9.2
- compound: "Cc1ccc2c(=O)c3cccc(CC(=O)O)c3oc2c1C"
  result_number: 5.66
- compound: "Nc1nc2c(ncn2[C@@H]2O[C@@H]3COP(=O)(O)O[C@H]4[C@@H](O)[C@H](n5cnc6c(=O)[nH]c(N)nc65)O[C@@H]4COP(=O)(O)O[C@H]3[C@H]2O)c(=O)[nH]1 [cdiGMP, Cyclic diguanylate monophosphate]"
  result_number: 13.2

Now examine the next entry.
Item: CC(O)COC[C@H]1O[C@@H]2O[C@H]3[C@H](O)[C@@H](O)[C@@H](O[C@H]4[C@H](O)[C@@H](O)[C@@H](O[C@H]5[C@H](O)[C@@H](O)[C@@H](O[C@H]6[C@H](O)[C@@H](O)[C@@H](O[C@H]7[C@H](O)[C@@H](O)[C@@H](O[C@H]8[C@H](O)[C@@H](O)[C@@H](O[C@H]1[C@H](O)[C@H]2O)O[C@@H]8COCC(C)O)O[C@@H]7COCC(C)O)O[C@@H]6COCC(C)O)O[C@@H]5COCC(C)O)O[C@@H]4COCC(C)O)O[C@@H]3COCC(C)O (stereo partly drawn) [bCD, Hydroxypropyl-beta-cyclodextrin] | IFN beta: positive regulation of interferon-beta production: 0

* * *

# Test system: preferentially upregulated genes in LV, SP, LN
# protocol_details: Z-score-based differential gene expression analysis (adjuvant group- or adjuvant-associated genes, 40 module mapping, TargetMine annotation)
# Type: in vivo, C57BL/6 mice
# stated_conditions: ID, LV, sample x2
Recorded Pml 1448757_at (Group G1, Modules 20), one value per entry.
Note: the reply should be a number with no unit written.

Example cases with answers are listed next.
- molecule: "Nc1nc2c(ncn2[C@@H]2O[C@@H]3COP(=O)(O)O[C@H]4[C@@H](O)[C@H](n5cnc6c(N)ncnc65)O[C@@H]4COP(=O)(O)O[C@@H]2[C@@H]3O)c(=O)[nH]1 [cGAMP, Cyclic [G(2′,5′)pA(3′,5′)p]]"
  Pml 1448757_at (Group G1, Modules 20): 2.02
- molecule: "Nc1nc2c(ncn2[C@@H]2O[C@@H]3COP(=O)(O)O[C@H]4[C@@H](O)[C@H](n5cnc6c(=O)[nH]c(N)nc65)O[C@@H]4COP(=O)(O)O[C@H]3[C@H]2O)c(=O)[nH]1 [cdiGMP, Cyclic diguanylate monophosphate]"
  Pml 1448757_at (Group G1, Modules 20): 1.57
- molecule: "Cc1ccc2c(=O)c3cccc(CC(=O)O)c3oc2c1C [DMXAA, 5,6-dimethylxanthenone-4-acetic acid]"
  Pml 1448757_at (Group G1, Modules 20): 1.35

Now examine the next entry.
Item: CCOCc1nc2c(N)nc3ccccc3c2n1CC(C)(C)O [R848] | Pml 1448757_at (Group G1, Modules 20): 1.53

* * *

# Tested on: spleen (SP)
# protocol_details: Whole organ transcriptome (GeneChip microarray) of spleen 6 h after adjuvant administration: sDEGs, hierarchical clustering; also: key: G1 (interferon signaling); G2 (metabolism of lipids and lipoproteins); G3 (response to stress); G4 (response to wounding); G5 (phosphate-containing compound metabolic process); G6 (phagosome)
# Assay type: in vivo, C57BL/6 mice
# stated_conditions: hierarchical clustering
readout_name: adjuvant group (cluster) in SP

- molecule: "CC(O)COC[C@H]1O[C@@H]2O[C@H]3[C@H](O)[C@@H](O)[C@@H](O[C@H]4[C@H](O)[C@@H](O)[C@@H](O[C@H]5[C@H](O)[C@@H](O)[C@@H](O[C@H]6[C@H](O)[C@@H](O)[C@@H](O[C@H]7[C@H](O)[C@@H](O)[C@@H](O[C@H]8[C@H](O)[C@@H](O)[C@@H](O[C@H]1[C@H](O)[C@H]2O)O[C@@H]8COCC(C)O)O[C@@H]7COCC(C)O)O[C@@H]6COCC(C)O)O[C@@H]5COCC(C)O)O[C@@H]4COCC(C)O)O[C@@H]3COCC(C)O (stereo partly drawn) [bCD, Hydroxypropyl-beta-cyclodextrin]"
  system_tested: "spleen (SP)"
  adjuvant group (cluster) in SP: "G2"
- molecule: "Nc1nc2c(ncn2[C@@H]2O[C@@H]3COP(=O)(O)O[C@H]4[C@@H](O)[C@H](n5cnc6c(N)ncnc65)O[C@@H]4COP(=O)(O)O[C@@H]2[C@@H]3O)c(=O)[nH]1 [cGAMP, Cyclic [G(2′,5′)pA(3′,5′)p]]"
  system_tested: "spleen (SP)"
  adjuvant group (cluster) in SP: "G1"
- molecule: "Nc1nc2c(ncn2[C@@H]2O[C@@H]3COP(=O)(O)O[C@H]4[C@@H](O)[C@H](n5cnc6c(=O)[nH]c(N)nc65)O[C@@H]4COP(=O)(O)O[C@H]3[C@H]2O)c(=O)[nH]1 [cdiGMP, Cyclic diguanylate monophosphate]"
  system_tested: "spleen (SP)"
  adjuvant group (cluster) in SP: "G1"
- molecule: "CCOCc1nc2c(N)nc3ccccc3c2n1CC(C)(C)O [R848]"
  system_tested: "spleen (SP)"
  adjuvant group (cluster) in SP: "G1"

Item: Cc1ccc2c(=O)c3cccc(CC(=O)O)c3oc2c1C [DMXAA, 5,6-dimethylxanthenone-4-acetic acid] | adjuvant group (cluster) in SP: G1
